- tested target: PI3K delta (Homo sapiens)
- Construct: for the full-length p110-d subunit are generated and fused by overlapping PCR; His tag (C); made in house; host or cells: baculovirus BV1060; Tn5 (Trichoplusia ni) or TiniPro insect cells
- Sequence (O00329 with tags, fused parts or gaps limits assumed): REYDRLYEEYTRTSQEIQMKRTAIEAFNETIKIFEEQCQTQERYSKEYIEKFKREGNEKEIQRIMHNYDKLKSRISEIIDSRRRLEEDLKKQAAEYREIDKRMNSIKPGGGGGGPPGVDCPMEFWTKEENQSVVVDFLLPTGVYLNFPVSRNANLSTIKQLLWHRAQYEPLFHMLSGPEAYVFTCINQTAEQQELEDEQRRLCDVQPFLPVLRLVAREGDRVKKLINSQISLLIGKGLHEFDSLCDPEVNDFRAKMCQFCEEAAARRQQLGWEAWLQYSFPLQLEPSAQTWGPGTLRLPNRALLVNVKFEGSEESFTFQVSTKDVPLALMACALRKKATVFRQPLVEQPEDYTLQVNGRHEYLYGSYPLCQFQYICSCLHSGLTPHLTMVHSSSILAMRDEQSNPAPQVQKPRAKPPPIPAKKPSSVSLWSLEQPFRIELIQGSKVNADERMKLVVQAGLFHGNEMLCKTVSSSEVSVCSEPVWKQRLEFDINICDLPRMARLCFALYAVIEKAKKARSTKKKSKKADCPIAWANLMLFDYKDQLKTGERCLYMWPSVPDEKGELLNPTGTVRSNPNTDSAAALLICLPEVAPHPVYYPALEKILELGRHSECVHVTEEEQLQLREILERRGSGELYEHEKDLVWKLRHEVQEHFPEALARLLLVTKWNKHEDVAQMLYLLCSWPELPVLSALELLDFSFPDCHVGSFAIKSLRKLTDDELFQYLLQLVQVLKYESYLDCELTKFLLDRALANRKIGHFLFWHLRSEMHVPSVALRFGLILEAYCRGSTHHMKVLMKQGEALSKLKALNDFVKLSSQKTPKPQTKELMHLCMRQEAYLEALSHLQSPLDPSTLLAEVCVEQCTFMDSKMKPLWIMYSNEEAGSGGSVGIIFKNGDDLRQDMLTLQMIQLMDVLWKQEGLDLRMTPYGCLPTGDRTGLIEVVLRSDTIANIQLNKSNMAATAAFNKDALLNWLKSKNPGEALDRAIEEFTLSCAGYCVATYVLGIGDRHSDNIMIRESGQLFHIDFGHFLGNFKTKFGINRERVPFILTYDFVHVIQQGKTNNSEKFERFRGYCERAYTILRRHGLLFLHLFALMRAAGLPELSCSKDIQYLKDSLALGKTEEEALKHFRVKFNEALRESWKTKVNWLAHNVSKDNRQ
- assay notes: PI3K delta kinase assay (Kinase-Glo luminescence)
- Type: biochemical
- condition info: read-out: EPK_PI3Kdelta/IC50
value type: IC50 (nM)
Note: unit nM is implicit; provide only the numeric part.

Example entries begin here.
INSERT INTO assay_data (entry_smiles, unit_abbreviation, numeric_value) VALUES
  ('CCNc1cc(-c2ccc3ncc4c(c3c2)n(-c2ccc(N3CC(F)(F)C3)nc2C)c(=O)n4C)cnc1CO', 'nM', 55),
  ('CNc1ccc(-c2ccc3ncc4c(c3c2)n(-c2ccc(N3CCC3)nc2C)c(=O)n4C)cn1', 'nM', 48),
  ('Cc1nc(C(F)(F)F)ccc1-n1c(=O)n(C)c2cnc3ccc(-c4cnc(N)c(CO)c4)cc3c21', 'nM', 25),
  ('CCNc1ncc(-c2ccc3ncc4c(c3c2)n(-c2ccc(N3CC[C@@H](O)C3)nc2C)c(=O)n4C)cc1COCC', 'nM', 26),
  ('COCc1ncc(-c2ccc3ncc4c(c3c2)n(-c2ccc(F)nc2C)c(=O)n4C)cc1OC', 'nM', 79);

## Task Bench note: what IC50 did Cc1ncccc1-n1c(=O)n(C)c2cnc3ccc(-c4cncc(N5CCC5)c4)cc3c21 show?
## Result 504

## Task Looking for the measured IC50 of Cc1nc(N(C)C)ccc1-n1c(=O)n(C)c2cnc3ccc(-c4cncc(N)c4)cc3c21 , can you help?
## Result 67

---

- tested target: mTOR (Homo sapiens, UniProt P42345)
- Construct: purchased Invitrogen Corporation (Carlsbad/Calif., USA) PV4753
- Sequence (P42345 1360-2549 limits assumed): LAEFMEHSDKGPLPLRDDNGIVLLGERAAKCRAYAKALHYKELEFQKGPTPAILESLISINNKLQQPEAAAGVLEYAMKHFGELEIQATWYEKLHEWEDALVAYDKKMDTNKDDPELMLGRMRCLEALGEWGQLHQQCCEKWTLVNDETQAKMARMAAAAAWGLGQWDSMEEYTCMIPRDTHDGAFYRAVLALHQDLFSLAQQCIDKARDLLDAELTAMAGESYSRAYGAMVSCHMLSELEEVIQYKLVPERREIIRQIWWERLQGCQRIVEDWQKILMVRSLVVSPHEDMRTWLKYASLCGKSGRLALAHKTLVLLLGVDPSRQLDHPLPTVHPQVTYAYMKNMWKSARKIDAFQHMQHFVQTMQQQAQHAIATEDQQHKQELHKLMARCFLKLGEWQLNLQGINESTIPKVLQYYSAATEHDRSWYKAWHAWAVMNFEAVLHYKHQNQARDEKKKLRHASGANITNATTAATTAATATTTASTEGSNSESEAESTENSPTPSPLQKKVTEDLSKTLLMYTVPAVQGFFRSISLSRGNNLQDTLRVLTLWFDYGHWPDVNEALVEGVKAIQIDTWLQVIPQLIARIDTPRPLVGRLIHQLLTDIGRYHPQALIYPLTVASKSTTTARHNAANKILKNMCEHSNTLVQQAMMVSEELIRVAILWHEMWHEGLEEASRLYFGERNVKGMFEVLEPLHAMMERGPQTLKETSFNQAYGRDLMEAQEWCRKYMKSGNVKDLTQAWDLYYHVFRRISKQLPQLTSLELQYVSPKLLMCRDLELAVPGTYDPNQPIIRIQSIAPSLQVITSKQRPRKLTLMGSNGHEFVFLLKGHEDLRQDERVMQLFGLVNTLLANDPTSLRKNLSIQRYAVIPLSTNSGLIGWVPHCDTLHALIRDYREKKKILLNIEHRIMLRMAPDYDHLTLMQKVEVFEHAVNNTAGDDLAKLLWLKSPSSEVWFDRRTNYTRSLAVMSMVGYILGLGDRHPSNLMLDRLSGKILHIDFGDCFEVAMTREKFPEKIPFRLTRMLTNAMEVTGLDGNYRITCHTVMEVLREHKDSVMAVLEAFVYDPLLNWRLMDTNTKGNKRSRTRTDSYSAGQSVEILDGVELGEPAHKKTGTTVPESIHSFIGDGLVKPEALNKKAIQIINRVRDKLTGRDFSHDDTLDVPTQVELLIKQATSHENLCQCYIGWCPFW
- assay notes: Biochemical assay for m-TOR by TR-FRET
- condition info: read-out: EPK_mTOR/IC50
value type: log10 IC50 (log10 of the value in nM)
// do not treat as linear: log10 of IC50, unit nM

Worked cases, log10 IC50 given:
INSERT INTO measurements (entry_smiles, value_type, numeric_value) VALUES
  ('CCNc1ncc(-c2ccc3ncc4c(c3c2)n(-c2ccc(N3CC[C@H](O)C3)nc2C)c(=O)n4C)c(OC)n1', 'log10 IC50', 1.32),
  ('CNc1cc(-c2ccc3ncc4c(c3c2)n(-c2ccc(F)nc2C)c(=O)n4C)cnc1CO', 'log10 IC50', 1.04),
  ('Cc1ccc(-n2c(=O)n(C)c3cnc4ccc(-c5cnc(N)c(C(F)(F)F)c5)cc4c32)c(C)n1', 'log10 IC50', 1.23),
  ('CCNc1ncc(-c2ccc3ncc4c(c3c2)n(-c2ccc(N3CC(O)C3)nc2C)c(=O)n4C)cn1', 'log10 IC50', 0.90),
  ('Cc1ncccc1-n1c(=O)n(C)c2cnc3ccc(-c4cncc(N5CCC5)c4)cc3c21', 'log10 IC50', 1.63);

## Task State its log10 IC50 on mTOR (Homo sapiens, UniProt P42345): CCNc1cc(-c2ccc3ncc4c(c3c2)n(-c2ccc(OC)nc2C)c(=O)n4C)cnc1C
## Result 0.48

## Task # query: log10 IC50 | item Cc1nc(C(F)(F)F)ccc1-n1c(=O)n(C)c2cnc3ccc(-c4cnc(N)c(CO)c4)cc3c21 | system: mTOR (Homo sapiens, UniProt P42345)
## Result 1.56
